B1: TPR 5TU (parent)
chain: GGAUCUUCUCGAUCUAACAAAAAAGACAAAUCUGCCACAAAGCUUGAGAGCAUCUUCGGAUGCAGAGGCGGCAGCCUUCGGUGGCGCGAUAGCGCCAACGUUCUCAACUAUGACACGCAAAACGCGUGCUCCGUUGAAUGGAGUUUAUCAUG

variants of: B1; assay: polymerase ribozyme fitness, log enrichment relative to wild type (log ratio); higher = more active; in vitro selection for triplet polymerase activity
This sample holds only a part of the variants without activity.
Measurement Name: polymerase ribozyme fitness (log ratio)
Write no unit; give the number alone.

Solved cases (8 shown):
G62C C123A; -1.69
G88A A110G A122U; -3.97
A16G U134A; -3.15
A23G U130C A138U; -4.2
G83U G128U; -3.22
U82A U102G U144G; -1.48
C35A G83C; -3.93
G71U A147C; -3.65

// polymerase ribozyme fitness (log ratio) lookup, key: G42A G84A
-3.95

For the variant shown here, A40C U146G , give the reported polymerase ribozyme fitness (log ratio).
-0.247

Reported polymerase ribozyme fitness (log ratio), variant U31A C95G U130A : ____
-3.43

Need polymerase ribozyme fitness (log ratio) of C54G U55A G94U A98C U146G , thanks.
-3.37

Query (variant): A16G U148C ; field requested: polymerase ribozyme fitness (log ratio)
-2.77

So what does the record say about polymerase ribozyme fitness (log ratio) for A91G G94A ?
-3.47

Entry C5U U45G A119U has what polymerase ribozyme fitness (log ratio)?
-0.808

# query: polymerase ribozyme fitness (log ratio) of entry A41U C95U C99U G141C
-2.51

I am curious: what polymerase ribozyme fitness (log ratio) value has been reported for A52U C96U U101G U145G ?
-4.1

Entry under review: A19U C131A . Reported polymerase ribozyme fitness (log ratio)?
-1.75
